# system.tested: Prothrombin (Homo sapiens, UniProt P00734)
# protocol.summary: Inhibitory concentration against thrombin when incubated with the compound for 3 min in batch 2
measured.metric: pIC50
Quick note: pIC50 values are minus log10 of concentrations in mol/L.

input: Supply reported pIC50 belonging to this compound: COC(=O)[C@@H](O)[C@H](CCCCN)NC(=O)[C@@H]1CCCN1C(=O)[C@H](N)Cc1ccccc1
output: 4.69

---

# system.tested: Prothrombin (Homo sapiens, UniProt P00734)
# protocol.summary: Inhibitory concentration against thrombin when incubated with the compound for 3 min in batch 1
measured.metric: IC50 (µM)
Kindly answer with a numeric value in µM, unit omitted.

input: Supply reported IC50 belonging to this compound: COC(=O)[C@@H](O)[C@H](CCCCN)NC(=O)[C@@H]1CCCN1C(=O)[C@H](N)Cc1ccccc1
output: 30.5
